Test system: BDF1 mice, P388 leukemia ip, median survival T/C
MEASUREMENT_DESCRIPTION: NCI In Vivo Anticancer Drug Screen. Data for tumor model P388 Leukemia (intraperitoneal) in B6D2F1 (BDF1) mice
PARTICULARS: endpoint: median survival time; dose: 400.0 mg/kg/injection; schedule: Q01DX009 (ip); vehicle: Klucel (hydroxypropylcellulose) (HPC); higher = longer survival
Inconclusive results and toxic doses are left out.
OBSERVATION_TYPE: T/C

Suppose we examine the compound "Cc1ccc(S(=O)(=O)N/N=C/C(=O)O)cc1" ; what T/C value has been reported?
114 % of control

Item under review: "O=c1ccccn1CC1(c2ccccc2)OCCO1" . Reported T/C?
95 % of control

Item under review: "CC(C)Cn1cnc2c(Sc3c([N+](=O)[O-])ncn3C)nc(N)nc21" . Reported T/C?
86 % of control

Can you look up the measured T/C of COC1=CC(=O)CC(C)C12Oc1c(Cl)c(OC)cc(OC)c1C2=O (stereo not given) for me?
100 % of control

Name the reported T/C value associated with the compound "O=C1C(OC(=O)c2ccccc2)=C(c2ccc(O)cc2)C(=O)C(OC(=O)c2ccccc2)=C1c1ccc(O)cc1"
92 % of control

---

Test system: BDF1 mice, P388 leukemia ip, median survival T/C
MEASUREMENT_DESCRIPTION: NCI In Vivo Anticancer Drug Screen. Data for tumor model P388 Leukemia (intraperitoneal) in B6D2F1 (BDF1) mice
PARTICULARS: endpoint: median survival time; dose: 100.0 mg/kg/injection; schedule: Q04DX003 (ip); vehicle: saline sonified; higher = longer survival
Toxic doses and inconclusive results are not listed.
For each entry below, report its T/C value.

What value of T/C on BDF1 mice, P388 leukemia ip, median survival T/C does "CC1(C)NC(=O)N(CN2CCN(CN3C(=O)NC(C)(C)C3=O)CC2)C1=O" have?
107 % of control

Query T/C on BDF1 mice, P388 leukemia ip, median survival T/C for "CCN(CCN)c1cccc(C)c1"
100 % of control

Form field - read-out: T/C; system: BDF1 mice, P388 leukemia ip, median survival T/C; submitted item: "COc1ccc(OC)c(NC(=O)C2CC2)c1"
109 % of control

Missing value: T/C, BDF1 mice, P388 leukemia ip, median survival T/C, entry "O=C1N(Cl)C(=O)C(c2ccc(Cl)cc2)(c2ccc(Cl)cc2)N1Cl" . Fill in?
160 % of control

Which measured T/C belongs to C/C(CC(c1ccccc1)N1CCc2ccccc2C1)=N/O (stereo not given) , tested on BDF1 mice, P388 leukemia ip, median survival T/C?
104 % of control

---

Tested on: BDF1 mice, P388 leukemia ip, median survival T/C
MEASUREMENT_DESCRIPTION: NCI In Vivo Anticancer Drug Screen. Data for tumor model P388 Leukemia (intraperitoneal) in B6D2F1 (BDF1) mice
PARTICULARS: endpoint: median survival time; dose: 100.0 mg/kg/injection; schedule: Q01DX005 (ip); vehicle: saline with Tween-80; higher = longer survival
Inconclusive results and toxic doses are left out. Non-standard residues stand in square brackets, D forms with d. Residues, ends and D or L forms follow the SMILES beside them. *: point of attachment. Nle = CCCC[CH](N)C(=O)O; Cbz = O=C(OCc1ccccc1)*; OBn = c1ccc(CO*)cc1
I'd appreciate it if you could supply T/C values for the items below.

Field request: T/C | item: CC1(C)OC2(C)CCC1C(=O)C2N1CCCCC1 (centres undefined)
95 % of control

Which T/C reading was recorded for the compound "C=CCN1C(=O)CN=C1SC(=O)Nc1ccc(Cl)cc1" ?
97 % of control

Sample CC(N)(/C=C/c1ccccc1)C(=O)O (centres undefined) — what was its T/C?
97 % of control

Need T/C of CCCCC(NC(=O)C1CCCN1C(=O)OCc1ccccc1)C(=O)OCc1ccccc1 (stereo not drawn) (Cbz-Pro-[Nle]-OBn; configuration not given here) , thanks.
101 % of control
